Tested on: 299254-011-R-J1-PDC complex spheroid viability;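 note: spheroids exposed to drugs for one week before measurement; percent viability relative to DMSO vehicle control taken as 100%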
Test: Anticancer human tumor 299254-011-R-J1-PDC patient-derived melanoma cell line growth inhibition [POLQ]
Details: second compound 0.1 µM; first compound 10 µM; stronger effect = lower value
Description: Multicellular complex tumor spheroid response to Polymerase (POL) inhibitors (novobiocin, ART-558, RP6685) in combination with a variety of drugs and investigational agents in selected tumor cell lines The POL inhibitors (novobiocin, ART-558, and RP6685) were evaluated both individually and in combination with standard of care and investigational anticancer small molecules within a complex spheroid model of solid tumors. . […]
Readout: viability, T/C (%)
One number for each entry, in %.

Example results:
Compound	Target	viability, T/C, %
CC1COCCN1c1cc(C2(O)CC3CCC(C2)O3)c2cnn(-c3ccn[nH]3)c2n1 (stereo not given) + COC1C(OC(N)=O)C(O)C(Oc2ccc3c(O)c(NC(=O)c4ccc(O)c(CC=C(C)C)c4)c(=O)oc3c2C)OC1(C)C	299254-011-R-J1-PDC complex spheroid viability	11.5
O=C(Nc1ccc(O)c(NS(=O)(=O)c2ccc(F)cc2)c1)c1ccc(-c2ccccc2)cc1 + Cc1cccc(N(C)C(=O)C2C(O)CCN2c2nc(C)cc(C(F)(F)F)c2C#N)c1	299254-011-R-J1-PDC complex spheroid viability	47.3
CC(C)n1c(=O)n(C)c2cnc3cc(F)c(-c4ccc(OCCCN5CCCCC5)nc4)cc3c21 + Nc1ccc(C#CCN(C(=O)Cc2ncc(C(F)(F)F)cc2C(F)(F)F)c2ccc(F)cc2)nn1	299254-011-R-J1-PDC complex spheroid viability	78.7
COc1cc(C2c3cc4c(cc3C(OC3OC5COC(C)OC5C(O)C3O)C3COC(=O)C23)OCO4)cc(OC)c1O (stereo not given) + Cc1cccc(N(C)C(=O)C2C(O)CCN2c2nc(C)cc(C(F)(F)F)c2C#N)c1	299254-011-R-J1-PDC complex spheroid viability	54.8

The recorded viability, T/C for entry O=C(c1cc(Cc2n[nH]c(=O)c3ccccc23)ccc1F)N1CCN(C(=O)C2CC2)CC1 + Cc1cccc(N(C)C(=O)C2C(O)CCN2c2nc(C)cc(C(F)(F)F)c2C#N)c1 equals 77.4
